Target: T1, Purified recombinant human CD26 (rhDipeptidyl peptidase IV), R&D Systems CAT #1180-SE (human, UniProt P27487 29-766)
T1 construct: Bought recombinant protein; also called hu-CD26; soluble human CD26
T1 sequence (P27487 29-766 limits assumed): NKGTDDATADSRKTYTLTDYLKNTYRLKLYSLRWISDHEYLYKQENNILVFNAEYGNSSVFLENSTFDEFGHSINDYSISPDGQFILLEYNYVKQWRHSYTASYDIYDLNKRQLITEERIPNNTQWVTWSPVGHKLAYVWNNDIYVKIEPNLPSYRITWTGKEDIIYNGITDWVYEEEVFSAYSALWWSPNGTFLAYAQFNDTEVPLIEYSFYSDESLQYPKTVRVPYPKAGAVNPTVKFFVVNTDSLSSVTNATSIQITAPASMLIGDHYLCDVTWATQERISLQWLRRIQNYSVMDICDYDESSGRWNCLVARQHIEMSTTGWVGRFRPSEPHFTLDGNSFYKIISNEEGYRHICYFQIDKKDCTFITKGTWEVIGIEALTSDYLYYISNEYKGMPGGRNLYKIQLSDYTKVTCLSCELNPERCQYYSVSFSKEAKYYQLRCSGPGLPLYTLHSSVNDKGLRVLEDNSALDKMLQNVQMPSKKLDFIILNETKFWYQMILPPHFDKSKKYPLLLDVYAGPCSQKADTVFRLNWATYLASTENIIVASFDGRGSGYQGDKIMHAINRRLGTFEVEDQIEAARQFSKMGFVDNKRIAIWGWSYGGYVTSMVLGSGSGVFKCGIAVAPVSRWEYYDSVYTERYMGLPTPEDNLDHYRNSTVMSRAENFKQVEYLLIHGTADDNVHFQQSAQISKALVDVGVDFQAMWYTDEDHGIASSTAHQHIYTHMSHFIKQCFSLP
Experiment: SPR (Biacore), Fab
A collection of binders and their measured pKd
Kindly note that pKd refers to -log10 of the concentration in mol/L and answer with the value alone.

Worked cases, pKd given:
[[record]]
binder = "Fab X431 (X420 VH and X380 VL) (Fab, V domains shown, also called Fab X420) VH: EVQLVESGGGVKQPGETLRLTCTASGFSLSTYGVHWVRQAPGKGLEWVGVIWGDGRTDYDAAFMSRVTISKDTSKSTVYLQMNSLRAEDTAVYYCMRNRHDWFDYWGQGTTVTVSS VL: EIEMTQSPSSLSVSAGERATISCSASQDIRNSLNWYQQKPGQAPRLLIYYSSNLHTGVPARFSGSGSGTDFTLTISRLEPEDVAIYYCQQSNKLPLTFGSGTKVEIK"
meas_value = 9.04

[[record]]
binder = "Fab X393 (X385 VH and X379 VL) (Fab, V domains shown, Fab made in E. coli) VH: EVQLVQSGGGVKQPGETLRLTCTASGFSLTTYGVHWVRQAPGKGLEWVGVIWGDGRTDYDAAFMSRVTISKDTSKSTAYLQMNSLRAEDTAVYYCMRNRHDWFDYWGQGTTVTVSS VL: DILLTQSPSSLSATPGERATITCRASQGIRNNLNWYQQKPGQAPRLLIYYSSNLQSGVPSRFSGSGSGTDFTLTISRLQPEDVAAYYCQQSIKLPFTFGSGTKVEIK"
meas_value = 9.48

[[record]]
binder = "Fab X391 (X388 VH and X376 VL) (Fab, V domains shown, Fab made in E. coli) VH: EVQLVQSGGGLKQPGETLRLSCTASGYSLTTYGVHWVRQAPGKGLEWMGVIWGDGRTDYDSSFMSRVTISKDTSKSTAYLQLNSLRAEDTAVYYCTRNRHDWFDYWGQGTTVTVSS VL: DILMTQSPSSLSASPGDRVTISCRASQDIRNNLNWYQQKPGQAPRLLIYYSSNLHSGVPDRFSGSGSGTDFTLTISRLEPEDFAAYYCQQSIKLPLTFGSGTKVEIK"
meas_value = 8.67


Input line: Recorded pKd of Fab X389 (X384 VH and X376 VL) (Fab, V domains shown, Fab made in E. coli) VH: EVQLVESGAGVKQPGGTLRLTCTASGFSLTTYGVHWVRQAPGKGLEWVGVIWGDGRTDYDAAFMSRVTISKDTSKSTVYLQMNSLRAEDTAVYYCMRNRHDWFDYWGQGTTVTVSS VL: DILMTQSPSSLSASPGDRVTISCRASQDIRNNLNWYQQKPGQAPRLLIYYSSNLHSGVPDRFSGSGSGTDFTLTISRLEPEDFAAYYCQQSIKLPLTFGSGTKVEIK , please.
Output line: 9.42
